Test: Quantum yield of solubilized protein (Cy5 reference)
Format: physicochemical
Settings: excitation at 600 nm
parameterMeasured: Quantum yield relative to Arch D95N

Arch D95H/D106H/P60S: Arch triple mutant D95H, D106H, P60S (protein) MDPIALQAGYDLLGDGRPETLWLGIGTLLMLIGTFYFLVRGWGVTDKDAREYYAVTILVSGIASAAYLSMFFGIGLTEVTVGGEMLDIYYARYAHWLFTTPLLLLHLALLAKVDRVTIGTLVGVDALMIVTGLIGALSHTAIARYSWWLFSTICMIVVLYFLATSLRSAAKERGPEVASTFNTLTALVLVLWTAYPILWIIGTEGAGVVGLGIETLLFMVLDVTAKVGFGFILLRSRAILGDTEAPEPSAGADVSAAD	12
